Where do these numbers come from? They come from ChEMBL document CHEMBL2086255.

Papp B→A at 1 h listing for selected compounds.
test: Apparent permeability from basolateral side to apical side in human Caco2 cells after 1 hr; assay type: ADME, cell-based; conditions: Caco-2
reported endpoint: Papp B→A at 1 h (×10⁻⁶ cm/s)

{"compound": "C=CC(=O)Nc1ccc(S(=O)(=O)N2CCN(C(=O)C3CC3)CC2)cn1", "units": "×10⁻⁶ cm/s", "recorded result": 0.6}
{"compound": "C=CC(=O)Nc1ccc(S(=O)(=O)N2CCN(C(=O)C3CC3)CC2)cc1", "units": "×10⁻⁶ cm/s", "recorded result": 11.5}
{"compound": "C=CC(=O)Nc1ccc(S(=O)(=O)N2CCNCC2)cc1", "units": "×10⁻⁶ cm/s", "recorded result": 0.9}
{"compound": "C=CC(=O)Nc1ccc(S(=O)(=O)N2CCN(C(=O)C3CCCC3)CC2)cc1", "units": "×10⁻⁶ cm/s", "recorded result": 9.7}
{"compound": "C=CC(=O)Nc1ccc(S(=O)(=O)N2CCN(C(=O)C34CC5CC(CC(C5)C3)C4)CC2)cc1", "units": "×10⁻⁶ cm/s", "recorded result": 19.3}
